- studyTarget: Protein translocase subunit SecA (Escherichia coli (strain K12)) (UniProt P10408)
- Sequence (P10408 whole entry): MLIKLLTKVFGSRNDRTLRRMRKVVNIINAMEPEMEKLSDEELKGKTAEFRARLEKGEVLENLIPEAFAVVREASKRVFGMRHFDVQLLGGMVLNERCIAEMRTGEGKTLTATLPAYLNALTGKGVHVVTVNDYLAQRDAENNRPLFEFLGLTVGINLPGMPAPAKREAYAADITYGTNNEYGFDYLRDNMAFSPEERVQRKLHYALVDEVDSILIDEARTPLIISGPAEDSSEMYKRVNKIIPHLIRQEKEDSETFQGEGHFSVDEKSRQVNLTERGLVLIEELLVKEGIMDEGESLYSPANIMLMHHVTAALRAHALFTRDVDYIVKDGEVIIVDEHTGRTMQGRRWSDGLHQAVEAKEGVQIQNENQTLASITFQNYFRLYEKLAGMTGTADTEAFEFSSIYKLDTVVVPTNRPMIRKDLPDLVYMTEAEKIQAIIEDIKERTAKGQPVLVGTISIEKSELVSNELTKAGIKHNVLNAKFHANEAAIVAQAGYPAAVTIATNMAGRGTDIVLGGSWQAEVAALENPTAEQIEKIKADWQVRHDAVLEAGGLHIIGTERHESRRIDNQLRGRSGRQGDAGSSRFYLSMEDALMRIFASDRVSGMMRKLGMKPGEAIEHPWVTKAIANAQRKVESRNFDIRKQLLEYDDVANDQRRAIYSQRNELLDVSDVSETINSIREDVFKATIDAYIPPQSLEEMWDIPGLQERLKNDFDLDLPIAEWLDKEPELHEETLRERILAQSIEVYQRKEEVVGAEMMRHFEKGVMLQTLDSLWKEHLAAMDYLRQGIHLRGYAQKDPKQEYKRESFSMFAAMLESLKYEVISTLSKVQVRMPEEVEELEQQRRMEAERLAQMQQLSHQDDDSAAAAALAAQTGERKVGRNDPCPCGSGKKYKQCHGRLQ
- procedureDetails: Assay to Identify E. coli SecA ATPase Inhibitors
- Assay type: functional
- Set-up: scale not given: direction of the effect not stated beside the values
- reportedConditions: 30 µM
Measured potencies and affinities stand elsewhere.
experimentalEndpoint: Percent Effect (%)
Report as a plain number; the unit % is understood.

Solved entries (count: 10):
compound	Percent Effect, %
O=S(=O)(Cc1ccccc1)NCC1CCN(c2cnccn2)CC1	-2.03
CN1CCCC[C@@H]2[C@H]1[C@@H](c1ccccc1)CCN2C(=O)c1ccccc1	-2.17
O=S(=O)(c1ccccc1)N1CCC2(CCCN2CC2CCCC2)C1 (centres undefined)	-2.93
NC(=O)C1CCN(c2nc3nccc(-c4ccccn4)c3c(=O)[nH]2)CC1	-4.8
COCc1ccccc1C(=O)NCCCN1CCCC1C(=O)N(C)C (centres undefined)	0.173
COc1cc(N2CC[C@H](O)[C@@H]2Cc2cnn(C)c2)ncn1	-0.518
CCN(Cc1ccco1)C(=O)c1cc(OC)c2c(c1)OCCO2	-1.97
N#Cc1ccc(F)c(CN2CCCC2Cn2cccn2)c1 (centres undefined)	-4.03
COCC(NC(=O)c1ccc[nH]1)c1cccc(C(F)(F)F)c1 (centres undefined)	-6.18
CCOc1ccc(N2CCCN=C2NC(=O)c2ccccc2C)cc1	-3.08

Percent Effect lookup needed for CN(C)C(=O)CC1CC2(CCN(c3ncccn3)CC2)c2ccccc21 (centres undefined) , thanks.
-7.49

Percent Effect lookup needed for `CN(Cc1ccc2c(c1)OCO2)Cc1nc2c(cnn2C)c(=O)[nH]1` , thanks.
-3.58

Percent Effect lookup needed for `CN(C)C(=O)N1C[C@H]2CN(Cc3cccc(F)c3)C(=O)[C@H]2C1` , thanks.
-4.01

Percent Effect lookup needed for `CC(C)c1cnc(CNc2c(F)cccc2-n2cccn2)o1` , thanks.
1.05
